src = PubChem BioAssay AID687

target: Coagulation factor XI (Homo sapiens) (UniProt P03951); assay: human FXIa protease inhibitors, primary screen, biochemical, single compound per well (AID 687); details: purified human FXIa, fluorogenic AMC substrate cleavage; at 10 µM; active compounds read high;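 note: 0% = enzyme without compound and 100% = blank wells lacking enzyme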
Sequence (P03951 19-387 limits assumed): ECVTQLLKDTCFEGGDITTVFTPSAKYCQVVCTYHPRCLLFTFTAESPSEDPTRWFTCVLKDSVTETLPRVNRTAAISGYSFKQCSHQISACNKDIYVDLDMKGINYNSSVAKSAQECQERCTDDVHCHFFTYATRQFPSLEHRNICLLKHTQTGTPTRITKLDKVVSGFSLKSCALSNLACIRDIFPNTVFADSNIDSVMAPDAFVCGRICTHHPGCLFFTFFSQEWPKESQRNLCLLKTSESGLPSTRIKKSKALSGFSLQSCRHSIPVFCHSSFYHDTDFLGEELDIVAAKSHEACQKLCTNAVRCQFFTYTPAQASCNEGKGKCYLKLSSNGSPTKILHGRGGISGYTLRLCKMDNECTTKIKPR
Sequence (P03951 388-625 limits assumed): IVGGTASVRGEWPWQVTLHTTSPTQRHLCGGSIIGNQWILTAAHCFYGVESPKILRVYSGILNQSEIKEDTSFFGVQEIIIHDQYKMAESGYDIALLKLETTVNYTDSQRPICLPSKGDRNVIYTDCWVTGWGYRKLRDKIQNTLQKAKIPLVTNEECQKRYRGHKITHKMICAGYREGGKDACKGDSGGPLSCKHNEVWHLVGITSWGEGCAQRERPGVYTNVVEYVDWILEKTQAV
The campaign covered roughly 33,000 compounds. About 95 (0.3%) were called active. What follows is part of a selection rich in actives, with near analogues and random picks from the rest.
# inhibition annotations
# value in %; strip the unit string

Example results:
# compound, unit-spec, recorded-value
rows = [
    ("COc1ccccc1NC(=O)/C=C/C(N)=O", "%", 4.44),
    ("Cn1c(N)c(C(=O)COC(=O)C23CC4CC(CC(C4)C2)C3)c(=O)n(C)c1=O", "%", 21.8),
    ("COc1cc2c(cc1OC)C(C(C)C)=NC(C)(C)C2", "%", 2.2),
    ("Cn1c(CC(=O)Nc2ccccc2)nnc1SCC(=O)c1ccccc1", "%", -6.46),
    ("CCOC(=O)c1c(N)sc(C(C)=O)c1C", "%", 5.4),
]

Reported inhibition for COc1ccc(-c2cn(-c3ccc(C)cc3)c(=O)n2CC(=O)Nc2ccc(OC)c(OC)c2)cc1 was -1.74

Reported inhibition for CC(C)C(=O)Nc1nnc(Sc2ccc(N(C)C)cc2)s1 was -3.42

Reported inhibition for Cc1cccc(C)c1NC(=O)CSc1nnc(-c2ccccc2)n1Cc1ccc2c(c1)OCO2 was 3.72

Reported inhibition for CC1(C)Cc2c(sc3nc(SCC(=O)NCc4ccccc4)n(-c4ccccc4)c(=O)c23)CS1 was 1.32

Reported inhibition for CCOc1cccc(NC(=O)Cn2nc(-c3ccc4c(c3)OCCO4)ccc2=O)c1 was -4.23

Reported inhibition for O=C(CCn1c(SCC(=O)c2ccccc2)nc2ccccc2c1=O)NCc1ccc(F)cc1 was -1.87

Reported inhibition for CCCCN1C(=O)CC(N2CCOCC2)C1=O (configuration not stated) was 4.69

Reported inhibition for COC(C)(C)[C@]12CC(O)(C(C)C)ON1[C@H]1CCCCC1N2O (some centres not stated) was 0.57

Reported inhibition for Oc1ccccc1CNc1ncc(Br)cc1Br was -10.8

Reported inhibition for CCOC(=O)CN(Cc1ccc(OC)c(OC)c1)S(=O)(=O)c1ccc(OC)cc1 was 6.28

Reported inhibition for O=C(CN1CCN(C(=O)c2ccco2)CC1)Nc1ccc2c(c1)OCO2 was -13.2

Reported inhibition for CSc1nc(C)cc(SC(C(C)=O)C(=O)Nc2ccccc2)n1 (configuration not stated) was 0.47

* * *

biological target: Coagulation factor XI (Homo sapiens); assay: human FXIa protease inhibitors, primary screen, biochemical, single compound per well (AID 687); conditions: purified human FXIa, fluorogenic AMC substrate cleavage; at 10 µM; active compounds read high;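 note: 0% = enzyme without compound and 100% = blank wells lacking enzyme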
Screen size: about 33,000 compounds; about 95 (0.3%) were called active. The full list was thinned out, with actives kept by preference.
quantity-kind: inhibition (%)
# value in %; strip the unit string

Reported inhibition for CC(C)(C)c1cc(=O)n2c(nc3ccccc32)[nH]1 was 2.42

Reported inhibition for CSc1ccccc1NC(=O)c1cc(C2CC2)on1 was 5.92

Reported inhibition for C=CCN(C(=O)Cn1ncc2c1-c1cc(C)ccc1OC2)c1ccccc1 was 7.94

Reported inhibition for CCCCSc1[nH]c(=O)c(C(=O)OCC)cc1C#N was -3.65

* * *

# inhibition annotations
biological target: Coagulation factor XI (Homo sapiens) (UniProt P03951); assay: human FXIa protease inhibitors, primary screen, biochemical, single compound per well (AID 687); details: purified human FXIa, fluorogenic AMC substrate cleavage; at 10 µM; active compounds read high;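 note: 0% = enzyme without compound and 100% = blank wells lacking enzyme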
Hit rate of the full screen: of about 33,000 compounds, about 95 (0.3%) were called active. The full list was thinned out, with actives kept by preference.
# value in %; strip the unit string

# compound, unit-spec, inhibition
measured = [
    ("O=c1[nH][nH]c(C(F)(F)F)c1C=NCc1ccccc1Cl", "%", -12.4),
]

Reported inhibition for COc1ccc(-n2nc3c(c2NC(=O)Cc2cccc(C)c2)CS(=O)C3)cc1 (configuration not stated) was 4.35

Reported inhibition for Cc1cc(=O)oc2ccc(OCC(=O)O)cc12 was -9.94

Reported inhibition for CCn1c(SCC(=O)Nc2ccc(OC)c(OC)c2)nnc1-c1c[nH]c2ccccc12 was 7.43

Reported inhibition for O=C(NCc1ccccc1)[C@@H]1CSC2c3ccccc3C(=O)N21 (some centres not stated) was -6.84

Reported inhibition for COc1ccccc1CNS(=O)(=O)c1ccc(C)cc1 was -5.43

Reported inhibition for O=C(CNS(=O)(=O)c1ccc(Br)s1)N1CCN(C(=O)c2ccco2)CC1 was -4.45

Reported inhibition for Cc1ccc(-c2noc(CSc3nnc(-c4ccncc4)n3-c3ccc(F)cc3)n2)cc1 was 4.76

Reported inhibition for Cc1cc(C(F)(F)F)n2ncc(-c3ccccc3)c2n1 was -2.08

Reported inhibition for O=C(CSCc1ccccc1)N1CCc2ccccc21 was 1.56

Reported inhibition for CC1=NN(C(C)C)C(=O)C1 was 28.4

Reported inhibition for COCCCNC(=O)C1CC(=O)N(CCc2ccccc2)C1 (configuration not stated) was 7.75

Reported inhibition for O=C(NC1CCCCC1)c1ccc(CNc2c(N3CCOCC3)c(=O)c2=O)cc1 was -0.69

Reported inhibition for COc1ccc(C)cc1NC(=O)CCS(=O)(=O)c1cccc2nonc12 was 24.9

Reported inhibition for O=C(CCN1C(=O)c2ccccc2C1=O)Nc1cccc(F)c1 was 21.9

Reported inhibition for CCC1(C)Cc2c(sc3nc(SC)nc(N)c23)CO1 (configuration not stated) was 14.2

Reported inhibition for C=CCn1c(N)cc(=O)nc1SCC(=O)Nc1cccc2ccccc12 was 9.45

Reported inhibition for COC(=O)C1CCN(CC(N)=O)CC1 was -11.2

Reported inhibition for O=C(CCc1ccccc1)NCc1cccnc1 was 23.1
